Tested on: CAL-148
Assay: normalised response (% of control), CellTox Green; higher = less cell death (100 = DMSO, 0 = benzethonium chloride kill control)
Conditions: incubation time: 72 h
Observation Type: normalised response (%)
The figure you give is taken to be in %; do not add the unit.

Recorded normalised response (compound O=C(CCCCCCC(=O)Nc1ccc([C@H]2O[C@@H](CSc3nc(-c4ccccc4)c(-c4ccccc4)o3)C[C@@H](c3ccc(CO)cc3)O2)cc1)NO [Tubacin] (1000 nM) ): 99.9

normalised response for Cn1c(Nc2ccc(C(F)(F)F)cc2)nc2cc(Oc3ccnc(-c4ncc(C(F)(F)F)[nH]4)c3)ccc21 [RAF265] (10 nM) is 103

Entry under test: C[C@]12CC[C@@H]3c4ccc(O)cc4C[C@@H](CCCCCCCCC[S+]([O-])CCCC(F)(F)C(F)(F)F)[C@H]3[C@@H]1CC[C@@H]2O (stereo partly drawn) [Fulvestrant] (100 nM) . Its normalised response was 100

----------
Would you mind telling me the reported normalised response of each entry?
System: HCC1143
Assay: normalised response (% of control), CellTox Green; higher = less cell death (100 = DMSO, 0 = benzethonium chloride kill control)
Settings: incubation time: 72 h
A number alone suffices; assume %.

Lab note: measured normalised response of O=C(O)c1ccc(-c2c[nH]c3ncc(-c4ccccc4)cc23)cc1C1CCCC1 (10000 nM) was 117

// COc1cc2nccc(Oc3ccc(NC(=O)C4(C(=O)Nc5ccc(F)cc5)CC4)cc3)c2cc1OC [Cabozantinib] (1000 nM) : normalised response value = 108

// CNCc1ccc(-c2[nH]c3cc(F)cc4c3c2CCNC4=O)cc1 [Rucaparib] (10000 nM) : normalised response value = 74.6

// recorded normalised response for CCC1=C[C@@H]2CN(C1)Cc1c([nH]c3ccccc13)[C@@](C(=O)OC)(c1cc3c(cc1OC)N(C)[C@H]1[C@@](O)(C(=O)OC)[C@H](OC(C)=O)[C@]4(CC)C=CCN5CC[C@]31[C@@H]54)C2 [Vinorelbine] (10000 nM) : 106

response.value for CCCCCCCCCCCCCCCCCCOP(=O)([O-])OC1CC[N+](C)(C)CC1 [Perifosine] (250 nM) (field: normalised response) = 118

Kindly note the recorded normalised response for CNCc1ccc(-c2[nH]c3cc(F)cc4c3c2CCNC4=O)cc1 [Rucaparib] (1000 nM) , which is 104

CC1(C)NC(=O)N(c2ccc([N+](=O)[O-])c(C(F)(F)F)c2)C1=O [Nilutamide] (1000 nM) yielded normalised response of 72.8

The molecule listed as CN(C)/N=N/c1[nH]cnc1C(N)=O [Dacarbazine] (1000 nM) has a reported normalised response of 86.7

So, O=C(O)c1ccc(-c2c[nH]c3ncc(-c4ccccc4)cc23)cc1C1CCCC1 (1000 nM) ? Its normalised response was 96.2

The molecule identified as C[C@]12CC[C@@H]3c4ccc(O)cc4C[C@@H](CCCCCCCCC[S+]([O-])CCCC(F)(F)C(F)(F)F)[C@H]3[C@@H]1CC[C@@H]2O (stereo not given in full) [Fulvestrant] (1000 nM) registered its normalised response at 113

Reported normalised response for CO[C@H]1/C=C\C=C(/C)C(=O)NC2=CC(=O)C(NCCN(C)C)=C(C[C@@H](C)C[C@H](OC)[C@H](O)[C@@H](C)/C=C(\C)[C@@H]1OC(N)=O)C2=O [Alvespimycin] (10 nM) was 105

normalised response reported for this molecule O=P1(NCCCl)OCCCN1CCCl (stereo not given) [Ifosfamide] (1000 nM) : 107

Consider CS(=O)(=O)c1ccc(C2=C(c3ccccc3)C(=O)OC2)cc1 [Rofecoxib] (100 nM) . Its measured normalised response is 98.7

In plain terms, O=P1(NCCCl)OCCCN1CCCl (stereo not given) [Ifosfamide] (10000 nM) has a documented normalised response of 99.9

Memo: CC(C)Cn1cnc2c(N)nc3ccccc3c21 [Imiquimod] (250 nM) , reported normalised response: 99.4
